# Tested on: MDA-MB-231 breast
# ASSAY COMMENT: NCI tumour cell line growth inhibition, 48 h

- COMPOUND SMILES: "Nc1cccnc1/C=N/NC(=S)NCCNC(=O)c1ccc(-n2nc(-c3ccccc3O)nc2-c2ccccc2O)cc1"
  TGI, µM: 14.9
- COMPOUND SMILES: "Clc1ccc(-c2nc3ccc(-c4nnc(SCc5ccccc5)o4)cc3[nH]2)cc1"
  TGI, µM: 36.1
- COMPOUND SMILES: "Cc1ccc(-c2cc(C(=O)N=Nc3c(O)[nH]c4ccc(F)cc34)c3ccccc3n2)cc1"
  TGI, µM: 13.6
- COMPOUND SMILES: "COc1ccc(-c2cc(C(=O)N=Nc3c(O)[nH]c4ccc(Cl)cc34)c3ccccc3n2)cc1"
  TGI, µM: 18.1
